system: NRG-mice bearing LNCaP tumors; test: Biodistribution (and PET/SPECT imaging) in NRG-mice bearing LNCaP tumors; assay type: in vivo; conditions: 24 h p.i., Avg
*1 amine or outer side, *2 acyl side, *3 side chain or, on linkers, in order; H or OH if unused. Where a SMILES comes first, the peptide text is derived from it. [ ]: non-standard residue; d: D form. The star is where a group is joined. ξ: configuration not given here. ξLys(Nα-CO-ξAad) = O=C(O)CCCC(NC(=O)NC(CCCCN*)C(=O)O)C(=O)O; Butanoyl(4-(4-NO2Ph)) = O=C(CCCc1ccc([N+](=O)[O-])cc1)*; DOTA = O=C(O)CN1CCN(CC(=O)O)CCN(CC(=O)*)CCN(CC(=O)O)CC1; ξAla(9-anthryl) = NC(Cc1c2ccccc2cc2ccccc12)C(=O)O; X1 = O=C(C1CCC(CN[*:1])CC1)[*:2]; ξK = NCCCCC(N)C(=O)O
ATTRIBUTE MEASURED: Biodistribution: LNCaP tumor (% ID/g)

- COMPOUND: "O=C([O-])CN1CCN(CC(=O)[O-])CCN(CC(=O)NCCCCC(NC(=O)CNC(=O)CCCc2ccc([N+](=O)[O-])cc2)C(=O)NCC(=O)NCC2CCC(C(=O)NC(Cc3c4ccccc4cc4ccccc34)C(=O)NCCCCC(NC(=O)NC(CCCC(=O)O)C(=O)O)C(=O)O)CC2)CCN(CC(=O)[O-])CC1.[225Ac+3] (stereo not shown) [^225Ac-CCZ02017] ({Butanoyl(4-(4-NO2Ph))}-G[ξK](DOTA)G[X1][ξAla(9-anthryl)]-{ξLys(Nα-CO-ξAad)})"
  VALUE REPORTED: 42.31

---

tested on: NRG-mice bearing LNCaP tumors; assay: Biodistribution (and PET/SPECT imaging) in NRG-mice bearing LNCaP tumors; type: in vivo; details: 72 h p.i., Avg
*1 amine or outer side, *2 acyl side, *3 side chain or, on linkers, in order; H or OH if unused. Where a SMILES comes first, the peptide text is derived from it. [ ]: non-standard residue; d: D form. The star is where a group is joined. ξ: configuration not given here. ξLys(Nα-CO-ξAad) = O=C(O)CCCC(NC(=O)NC(CCCCN*)C(=O)O)C(=O)O; Butanoyl(4-(4-NO2Ph)) = O=C(CCCc1ccc([N+](=O)[O-])cc1)*; DOTA = O=C(O)CN1CCN(CC(=O)O)CCN(CC(=O)*)CCN(CC(=O)O)CC1; Butanoyl(4-(4-MeO-phenyl)) = COc1ccc(CCCC(=O)*)cc1; ξAla(9-anthryl) = NC(Cc1c2ccccc2cc2ccccc12)C(=O)O; X2 = O=C(NC(CCCCN*)C(=O)O)NC(CC(F)C(=O)O)C(=O)O; X1 = O=C(C1CCC(CN[*:1])CC1)[*:2]; ξK = NCCCCC(N)C(=O)O
ATTRIBUTE MEASURED: Biodistribution: kidney (% ID/g)

- MOLECULE: "COc1ccc(CCCC(=O)NCC(=O)NC(CCCCNC(=O)CN2CCN(CC(=O)[O-])CCN(CC(=O)[O-])CCN(CC(=O)[O-])CC2)CC(=O)NCC2CCC(C(=O)NC(Cc3c4ccccc4cc4ccccc34)C(=O)NCCCCC(NC(=O)NC(CC(F)C(=O)O)C(=O)O)C(=O)O)CC2)cc1.[177Lu+3] (centres unmarked) [^177Lu-CCZ02019]"
  VALUE REPORTED: 1.84
- MOLECULE: "COc1ccc(CCCC(=O)NCC(=O)NC(CCCCNC(=O)CN2CCN(CC(=O)[O-])CCN(CC(=O)[O-])CCN(CC(=O)[O-])CC2)C(=O)NCC(=O)NCC2CCC(C(=O)NC(Cc3c4ccccc4cc4ccccc34)C(=O)NCCCCC(NC(=O)NC(CC(F)C(=O)O)C(=O)O)C(=O)O)CC2)cc1.[177Lu+3] (centres unmarked) [^177Lu-CCZ02008] ({Butanoyl(4-(4-MeO-phenyl))}-G[ξK](DOTA)G[X1][ξAla(9-anthryl)]-X2)"
  VALUE REPORTED: 3.53
- MOLECULE: "O=C([O-])CN1CCN(CC(=O)[O-])CCN(CC(=O)NCCCCC(NC(=O)CNC(=O)CCCc2ccc([N+](=O)[O-])cc2)C(=O)NCC(=O)NCC2CCC(C(=O)NC(Cc3c4ccccc4cc4ccccc34)C(=O)NCCCCC(NC(=O)NC(CCCC(=O)O)C(=O)O)C(=O)O)CC2)CCN(CC(=O)[O-])CC1.[177Lu+3] (centres unmarked) [^177Lu-CCZ02017] ({Butanoyl(4-(4-NO2Ph))}-G[ξK](DOTA)G[X1][ξAla(9-anthryl)]-{ξLys(Nα-CO-ξAad)})"
  VALUE REPORTED: 3.21
- MOLECULE: "COc1ccc(CCCC(=O)NCC(=O)NC(CCCCNC(=O)CN2CCN(CC(=O)[O-])CCN(CC(=O)[O-])CCN(CC(=O)[O-])CC2)C(=O)NCC2CCC(C(=O)NC(Cc3c4ccccc4cc4ccccc34)C(=O)NCCCCC(NC(=O)NC(CCCC(=O)O)C(=O)O)C(=O)O)CC2)cc1.[177Lu+3] (centres unmarked) [^177Lu-HTK03170, reference compound]"
  VALUE REPORTED: 4.30
- MOLECULE: "O=C([O-])CN1CCN(CC(=O)[O-])CCN(CC(=O)NCCCCC(NC(=O)CNC(=O)CCCc2ccc([N+](=O)[O-])cc2)C(=O)NCC(=O)NCC2CCC(C(=O)NC(Cc3c4ccccc4cc4ccccc34)C(=O)NCCCCC(NC(=O)NC(CCCC(=O)O)C(=O)O)C(=O)O)CC2)CCN(CC(=O)[O-])CC1.[225Ac+3] (centres unmarked) [^225Ac-CCZ02017] ({Butanoyl(4-(4-NO2Ph))}-G[ξK](DOTA)G[X1][ξAla(9-anthryl)]-{ξLys(Nα-CO-ξAad)})"
  VALUE REPORTED: 3.62

Origin of the recorded values: patent US20250186627A1
